Assay: Drug interaction study: pharmacokinetics of firmonertinib and AST-5902 in rats with or without nirmatrelvir and ritonavir (paxlovid)
Assay type: in vivo, Sprague-Dawley (SD) rats
Conditions: male, Sprague-Dawley, rat, plasma, po, 7.2 mg/kg, rat plasma; Group B: single dose 55 mg/kg nirmatrelvir and 20 mg/kg ritonavir, then 7.2 mg/kg firmonertinib by gavage
assay.endpoint: AUC(0-inf) (ng·h/mL)
// note: answer is a bare numeric in ng·h/mL

State its AUC(0-inf): C=CC(=O)Nc1cc(Nc2nccc(-c3cn(C)c4ccccc34)n2)c(OCC(F)(F)F)nc1N(C)CCNC
185

State its AUC(0-inf): C=CC(=O)Nc1cc(Nc2nccc(-c3cn(C)c4ccccc34)n2)c(OCC(F)(F)F)nc1N(C)CCN(C)C
486

---

Measured AUC(0-t) by item
Experiment: Drug interaction study: pharmacokinetics of firmonertinib and AST-5902 in rats with or without nirmatrelvir and ritonavir (paxlovid)
Type: in vivo, Sprague-Dawley (SD) rats
Conditions: male, Sprague-Dawley, rat, plasma, po, 7.2 mg/kg, rat plasma; Group A control: single 7.2 mg/kg firmonertinib by gavage alone
// note: answer is a bare numeric in ng·h/mL

• C=CC(=O)Nc1cc(Nc2nccc(-c3cn(C)c4ccccc34)n2)c(OCC(F)(F)F)nc1N(C)CCN(C)C = 270

Now examine the next entry.
State its AUC(0-t): C=CC(=O)Nc1cc(Nc2nccc(-c3cn(C)c4ccccc34)n2)c(OCC(F)(F)F)nc1N(C)CCNC
387

---

Assay: Drug interaction study: pharmacokinetics of firmonertinib and AST-5902 in rats with or without nirmatrelvir and ritonavir (paxlovid)
Format: in vivo, Sprague-Dawley (SD) rats
Conditions: male, Sprague-Dawley, rat, plasma, po, 7.2 mg/kg, rat plasma; Group A control: single 7.2 mg/kg firmonertinib by gavage alone; read-out: MRT(0-t)
Measured MRT last by item
// note: answer is a bare numeric in h

State its MRT last: C=CC(=O)Nc1cc(Nc2nccc(-c3cn(C)c4ccccc34)n2)c(OCC(F)(F)F)nc1N(C)CCNC
8.37

State its MRT last: C=CC(=O)Nc1cc(Nc2nccc(-c3cn(C)c4ccccc34)n2)c(OCC(F)(F)F)nc1N(C)CCN(C)C
24.5

---

Experiment: Drug interaction study: pharmacokinetics of firmonertinib and AST-5902 in rats with or without nirmatrelvir and ritonavir (paxlovid)
Assay type: in vivo, Sprague-Dawley (SD) rats
Details: male, Sprague-Dawley, rat, plasma, po, 7.2 mg/kg, rat plasma; Group B: single dose 55 mg/kg nirmatrelvir and 20 mg/kg ritonavir, then 7.2 mg/kg firmonertinib by gavage
assay.endpoint: Tmax (h)
// note: answer is a bare numeric in h

- C=CC(=O)Nc1cc(Nc2nccc(-c3cn(C)c4ccccc34)n2)c(OCC(F)(F)F)nc1N(C)CCN(C)C [firmonertinib]: 6

Now examine the next entry.
State its Tmax: C=CC(=O)Nc1cc(Nc2nccc(-c3cn(C)c4ccccc34)n2)c(OCC(F)(F)F)nc1N(C)CCNC [AST-5902]
8.33

---

Measured MRT last by item
Assay: Drug interaction study: pharmacokinetics of firmonertinib and AST-5902 in rats with or without nirmatrelvir and ritonavir (paxlovid)
Type: in vivo, Sprague-Dawley (SD) rats
Details: male, Sprague-Dawley, rat, plasma, po, 7.2 mg/kg, rat plasma; Group C: 5 days twice a day 55 mg/kg nirmatrelvir and 20 mg/kg ritonavir, then 7.2 mg/kg firmonertinib by gavage; read-out: MRT(0-t)
// note: answer is a bare numeric in h

• C=CC(=O)Nc1cc(Nc2nccc(-c3cn(C)c4ccccc34)n2)c(OCC(F)(F)F)nc1N(C)CCN(C)C = 19.6

Now examine the next entry.
State its MRT last: C=CC(=O)Nc1cc(Nc2nccc(-c3cn(C)c4ccccc34)n2)c(OCC(F)(F)F)nc1N(C)CCNC
9.22

---

Measured Vd/F by item
Assay: Drug interaction study: pharmacokinetics of firmonertinib and AST-5902 in rats with or without nirmatrelvir and ritonavir (paxlovid)
Assay type: in vivo, Sprague-Dawley (SD) rats
Details: male, Sprague-Dawley, rat, plasma, po, 7.2 mg/kg, rat plasma; Group B: single dose 55 mg/kg nirmatrelvir and 20 mg/kg ritonavir, then 7.2 mg/kg firmonertinib by gavage; read-out: Vz/F
Kindly format the answer as number then unit.

- C=CC(=O)Nc1cc(Nc2nccc(-c3cn(C)c4ccccc34)n2)c(OCC(F)(F)F)nc1N(C)CCN(C)C: 374 L/kg

Now examine the next entry.
State its Vd/F: C=CC(=O)Nc1cc(Nc2nccc(-c3cn(C)c4ccccc34)n2)c(OCC(F)(F)F)nc1N(C)CCNC
362 L/kg

---

Measured Vd/F by item
Assay: Drug interaction study: pharmacokinetics of firmonertinib and AST-5902 in rats with or without nirmatrelvir and ritonavir (paxlovid)
Format: in vivo, Sprague-Dawley (SD) rats
Conditions: male, Sprague-Dawley, rat, plasma, po, 7.2 mg/kg, rat plasma; Group A control: single 7.2 mg/kg firmonertinib by gavage alone; read-out: Vz/F

• C=CC(=O)Nc1cc(Nc2nccc(-c3cn(C)c4ccccc34)n2)c(OCC(F)(F)F)nc1N(C)CCNC = 129 L/kg

Now examine the next entry.
State its Vd/F: C=CC(=O)Nc1cc(Nc2nccc(-c3cn(C)c4ccccc34)n2)c(OCC(F)(F)F)nc1N(C)CCN(C)C
1010 L/kg

---

Experiment: Drug interaction study: pharmacokinetics of firmonertinib and AST-5902 in rats with or without nirmatrelvir and ritonavir (paxlovid)
Format: in vivo, Sprague-Dawley (SD) rats
Conditions: male, Sprague-Dawley, rat, plasma, po, 7.2 mg/kg, rat plasma; Group C: 5 days twice a day 55 mg/kg nirmatrelvir and 20 mg/kg ritonavir, then 7.2 mg/kg firmonertinib by gavage
assay.endpoint: AUC(0-inf) (ng·h/mL)
// note: answer is a bare numeric in ng·h/mL

• C=CC(=O)Nc1cc(Nc2nccc(-c3cn(C)c4ccccc34)n2)c(OCC(F)(F)F)nc1N(C)CCN(C)C = 458

Now examine the next entry.
State its AUC(0-inf): C=CC(=O)Nc1cc(Nc2nccc(-c3cn(C)c4ccccc34)n2)c(OCC(F)(F)F)nc1N(C)CCNC
125
